- System: SF-295
- ASSAY OVERVIEW: NCI 60 cell line screen
- Format: cell-based
- CONDITION INFO: SF-295, CNS Cancer; single concentration 10^−5 M
Attribute: Growth %
EXPERIMENTAL READOUT: Growth % (%)

{"COMPOUND": "CN(C)c1ccc(-c2cc(-c3c[nH]c4ccccc34)nc(-c3c[nH]c4ccccc34)c2C#N)cc1 [4i]", "EXPERIMENTAL READOUT": "Growth %", "EXPERIMENTAL RESULT": 79.83}
{"COMPOUND": "N#Cc1c(-c2ccc(F)cc2)cc(-c2c[nH]c3ccccc23)nc1-c1c[nH]c2ccccc12 [4d]", "EXPERIMENTAL READOUT": "Growth %", "EXPERIMENTAL RESULT": 102.68}
{"COMPOUND": "N#Cc1c(-c2ccccc2)cc(-c2c[nH]c3ccccc23)nc1-c1c[nH]c2ccccc12 [4a]", "EXPERIMENTAL READOUT": "Growth %", "EXPERIMENTAL RESULT": 96.36}
{"COMPOUND": "N#Cc1c(-c2ccc(Cl)cc2)cc(-c2c[nH]c3ccccc23)nc1-c1c[nH]c2ccccc12 [4c]", "EXPERIMENTAL READOUT": "Growth %", "EXPERIMENTAL RESULT": 99.60}
{"COMPOUND": "COc1cc(OC)cc(-c2cc(-c3c[nH]c4ccccc34)nc(-c3c[nH]c4ccccc34)c2C#N)c1 [4f]", "EXPERIMENTAL READOUT": "Growth %", "EXPERIMENTAL RESULT": 101.07}
{"COMPOUND": "N#Cc1c(-c2ccc([N+](=O)[O-])cc2)cc(-c2c[nH]c3ccccc23)nc1-c1c[nH]c2ccccc12 [4h]", "EXPERIMENTAL READOUT": "Growth %", "EXPERIMENTAL RESULT": 100.99}
{"COMPOUND": "N#Cc1c(-c2ccc(Br)cc2)cc(-c2c[nH]c3ccccc23)nc1-c1c[nH]c2ccccc12 [4b]", "EXPERIMENTAL READOUT": "Growth %", "EXPERIMENTAL RESULT": 99.37}
{"COMPOUND": "COc1cc(-c2cc(-c3c[nH]c4ccccc34)nc(-c3c[nH]c4ccccc34)c2C#N)cc(OC)c1OC [4g]", "EXPERIMENTAL READOUT": "Growth %", "EXPERIMENTAL RESULT": 95.05}
{"COMPOUND": "COc1ccc(-c2cc(-c3c[nH]c4ccccc34)nc(-c3c[nH]c4ccccc34)c2C#N)cc1 [4e]", "EXPERIMENTAL READOUT": "Growth %", "EXPERIMENTAL RESULT": 95.83}
{"COMPOUND": "N#Cc1c(-c2ccc(O)cc2)cc(-c2c[nH]c3ccccc23)nc1-c1c[nH]c2ccccc12 [4j]", "EXPERIMENTAL READOUT": "Growth %", "EXPERIMENTAL RESULT": 87.00}

###

Measured Growth % accompanies every entry in the list below.
- System: SF-539
- ASSAY OVERVIEW: NCI 60 cell line screen
- Type: cell-based
- CONDITION INFO: SF-539, CNS Cancer; single concentration 10^−5 M
EXPERIMENTAL READOUT: Growth %

{"RECORD SMILES": "N#Cc1c(-c2ccc(Br)cc2)cc(-c2c[nH]c3ccccc23)nc1-c1c[nH]c2ccccc12", "EXPERIMENTAL RESULT": "97.32%"}
{"RECORD SMILES": "N#Cc1c(-c2ccc(F)cc2)cc(-c2c[nH]c3ccccc23)nc1-c1c[nH]c2ccccc12", "EXPERIMENTAL RESULT": "100.06%"}
{"RECORD SMILES": "N#Cc1c(-c2ccc(O)cc2)cc(-c2c[nH]c3ccccc23)nc1-c1c[nH]c2ccccc12", "EXPERIMENTAL RESULT": "66.62%"}
{"RECORD SMILES": "COc1cc(-c2cc(-c3c[nH]c4ccccc34)nc(-c3c[nH]c4ccccc34)c2C#N)cc(OC)c1OC", "EXPERIMENTAL RESULT": "93.66%"}
{"RECORD SMILES": "COc1cc(OC)cc(-c2cc(-c3c[nH]c4ccccc34)nc(-c3c[nH]c4ccccc34)c2C#N)c1", "EXPERIMENTAL RESULT": "94.25%"}
{"RECORD SMILES": "N#Cc1c(-c2ccccc2)cc(-c2c[nH]c3ccccc23)nc1-c1c[nH]c2ccccc12", "EXPERIMENTAL RESULT": "98.60%"}
